Target: GluA1 (Rattus norvegicus)
Construct: expressed in transfected cells; host or cells: HEK293T
Sequence (P19490 19-907 isoform P19490-2 limits assumed): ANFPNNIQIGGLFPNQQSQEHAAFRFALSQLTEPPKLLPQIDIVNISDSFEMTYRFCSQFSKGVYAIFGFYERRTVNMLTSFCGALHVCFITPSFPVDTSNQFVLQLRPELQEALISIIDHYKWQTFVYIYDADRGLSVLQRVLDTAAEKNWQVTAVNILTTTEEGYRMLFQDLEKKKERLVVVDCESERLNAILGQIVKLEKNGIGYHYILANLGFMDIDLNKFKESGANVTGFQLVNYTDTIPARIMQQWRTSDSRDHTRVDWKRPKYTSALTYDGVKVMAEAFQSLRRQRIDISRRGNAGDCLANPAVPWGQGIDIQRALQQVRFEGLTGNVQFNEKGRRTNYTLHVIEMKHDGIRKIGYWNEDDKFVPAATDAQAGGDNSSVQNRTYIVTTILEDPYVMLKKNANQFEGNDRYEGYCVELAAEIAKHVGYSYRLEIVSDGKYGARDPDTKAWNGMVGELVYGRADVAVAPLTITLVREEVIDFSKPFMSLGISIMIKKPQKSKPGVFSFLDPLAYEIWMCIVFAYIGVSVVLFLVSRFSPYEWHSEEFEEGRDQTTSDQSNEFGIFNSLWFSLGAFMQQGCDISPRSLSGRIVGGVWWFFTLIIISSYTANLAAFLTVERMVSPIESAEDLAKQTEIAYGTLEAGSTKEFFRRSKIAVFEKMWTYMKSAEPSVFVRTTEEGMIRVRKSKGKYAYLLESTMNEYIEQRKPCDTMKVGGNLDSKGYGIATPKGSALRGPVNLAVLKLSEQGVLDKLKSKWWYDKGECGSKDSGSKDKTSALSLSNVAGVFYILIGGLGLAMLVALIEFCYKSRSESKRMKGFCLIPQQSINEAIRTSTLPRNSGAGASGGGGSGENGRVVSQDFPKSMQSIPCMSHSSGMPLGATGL
Assay: Whole-cell patch-clamp recording of homomeric GluA1 AMPAR expressed in HEK293T cells
Format: cell-based
Details: 10 mM glutamate + 16 µM compound, -60 mV, pH 7.4, 22 °C, mean±SEM, n=8
For each of the compounds below, state its Amplitude with compound.
One number for each entry, in pA.

The reported Amplitude with compound of the compound COc1cc(N)ccc1C1=NNC(=O)Cc2cc3c(cc21)OCO3 was 93

Here are 3 compounds. What values of Amplitude with compound were reported for them?
1. Nc1ccc(C2=NNC(=O)Cc3cc4c(cc32)OCO4)c(F)c1
2. COc1cc([N+](=O)[O-])ccc1C1=NNC(=O)Cc2cc3c(cc21)OCO3
3. O=C1Cc2cc3c(cc2C(c2ccc([N+](=O)[O-])cc2F)=NN1)OCO3

1: 85; 2: 277; 3: 237
